These data points were gathered from ChEMBL document CHEMBL3988442.

- System: Wolbachia pipientis
- experiment notes: Anti-Wolbachia Cell-Based Screen
- Type: functional
- Set-up: scale not given: in the data most compounds retested in dose-response had high values
- conditions: 5 µM
About 13,000 (27%) of roughly 48,000 compounds showed an effect of 50% or more. The list shows a part of the results.
reported metric: Percent Effect (%)
Report only the number, with the unit % understood.

| molecule | measurement target | unit label | recorded result |
| --- | --- | --- | --- |
| Cc1ccc(C(O)CNC(=O)c2cccnc2O)cc1 (stereo unspecified) | Wolbachia pipientis | % | -65.97 |
| Cn1cc(C(O)CNC(=O)c2sccc2OC(F)F)cn1 (stereo unspecified) | Wolbachia pipientis | % | -0.7442 |
| CC(CNC(=O)c1ccc(F)cc1Cl)N1CCCC1 (stereo unspecified) | Wolbachia pipientis | % | 2.022 |

Which value of Percent Effect has been reported for Cn1cc(C(O)CNC(=O)c2ccc(F)cc2Cl)cn1 (stereo unspecified) in the records?
121.3

Entry CCOCC1c2c(cnn2CC2CC2)CCN1Cc1nccs1.O=C(O)C(F)(F)F.O=C(O)C(F)(F)F (stereo unspecified) please
115.2

Same again, this time with COCC1c2c(cnn2CC2CC2)CCN1Cc1cc(C)on1.O=C(O)C(F)(F)F.O=C(O)C(F)(F)F (stereo unspecified)
63.1

###

Items are presented alongside their recorded Percent Effect.
- Tested on: Wolbachia pipientis
- experiment notes: Anti-Wolbachia Cell-Based Screen
- Format: functional
- Design: scale not given: in the data most compounds retested in dose-response had high values
- conditions: 5 µM
Hit rate of the full screen: of about 48,000 compounds, about 13,000 (27%) showed an effect of 50% or more. Some of the results follow.
Please state the figure in %; there is no need to write the unit.

The following compounds have reported results that may help.
| compound | Percent Effect (%) |
| --- | --- |
| COc1ccc(N2CCN(C(=O)CCn3nccc3C)CC2(C)C)cc1 | -0.9656 |
| CN(C)CCn1ccnc1C1CCN(C(=O)CCc2cccnc2)CC1 | -5.205 |
| CN1C(=O)CC[C@@H]2N(C(=O)CCc3cccnc3)CCCC[C@@]21C | 73.04 |
| Cc1noc(CNc2ccc(OC(F)F)cc2OC(F)F)n1 | -10.63 |
| CN1CCCN(C(=O)NCCOc2ccc3c(c2)OCO3)CC1 | 115.1 |

Which Percent Effect reading was recorded for the compound O=C(NCCOc1ccc2c(c1)CCC2)N1CCS(=O)(=O)CC1 ?
35.32

Can you check CCn1cnnc1C1CCN(C(=O)COCCc2ccccc2)CC1 next?
1.598

Subsequent entry: CCn1c(C)cc(C(=O)N2CCCC(c3nc(C)no3)C2)c1C (stereo unspecified)
12.03

Same again, this time with CN(Cc1cnn(C)c1)C(=O)NC1CCN(c2ncccn2)CC1
-3.223

Let us now turn to CCCN1CCCN(C(=O)Nc2ccc3c(c2)OCO3)CC1
-18.65

Same lookup for CS(=O)(=O)c1ccc(-c2c[nH]c([C@@H]3COCCN3)n2)cc1 , please.
22.57

###

- Test system: Wolbachia pipientis
- experiment notes: Anti-Wolbachia Cell-Based Screen
- Format: functional
- Design: scale not given: in the data most compounds retested in dose-response had high values
- conditions: 5 µM
Among all 48,000 compounds or so, about 13,000 (27%) showed an effect of 50% or more. The list shows a part of the results.
Catalogue of Percent Effect values
State the answer as a number, implicitly in %.

| compound | measurement target | Percent Effect (%) |
| --- | --- | --- |
| CCn1cc(CN2CCCC(COc3ccc(F)cc3)C2)cn1 (stereo unspecified) | Wolbachia pipientis | 31.54 |
| Cc1ccc(C)c2c1NC(=O)C2CC(=O)O (stereo unspecified) | Wolbachia pipientis | 5.742 |
| O=C([C@H]1COC[C@H]2CN(C3CCCC3)C[C@H]21)N1CCOCC1 | Wolbachia pipientis | -18.92 |
| O=C([C@@H]1C[C@@H]2CCN(C3CCOCC3)C[C@@H]2O1)N1CCOCC1 | Wolbachia pipientis | 114 |
| O=c1cc(CNCc2ccc3c(c2)OCO3)nc2ccccn12 | Wolbachia pipientis | 121 |
| O=S(=O)(c1ccc2c(c1)OCCO2)N1CCC(OCc2ccccn2)C1 (stereo unspecified) | Wolbachia pipientis | -6.121 |
| CC1c2ncc(Cn3cncn3)n2CCN1C(=O)C1CCOCC1 (stereo unspecified) | Wolbachia pipientis | -2.006 |
| O=c1cc(CN(Cc2ccco2)C2CC2)nc2ccc(Br)cn12 | Wolbachia pipientis | -5.391 |

Recorded Percent Effect for O=S(=O)(c1ccc2c(c1)OCCO2)N1CCc2ccccc2C1 , please?
119.9

Consider next the compound Cc1nnc(NCC(c2ccco2)N(C)C)c(C#N)c1C (stereo unspecified) in the same way.
0.3665

How about this compound: COc1ccc(-c2cccc(CC3(C(=O)O)CCOCC3)c2)cc1
106.8

Continue with O=c1cc(CNCc2ccc3c(c2)OCO3)nc2ccc(Br)cn12
115.5

###

Listed below: Percent Effect values for each entry.
- Tested on: Wolbachia pipientis
- experiment notes: Anti-Wolbachia Cell-Based Screen
- Assay type: functional
- Set-up: scale not given: in the data most compounds retested in dose-response had high values
- conditions: 5 µM
About 13,000 (27%) of roughly 48,000 compounds showed an effect of 50% or more. This is one part of the list.

Would you please look over these solved cases?
| molecule | measurement target | recorded result |
| --- | --- | --- |
| CCc1nnsc1C(=O)NCCCC(CC)(CC)C1OCCO1 | Wolbachia pipientis | -13.99% |
| c1csc(-c2nc(CN3CCn4c(nnc4C4CC4)C3)co2)c1 | Wolbachia pipientis | -3.067% |
| Cc1cc(C(C)NC(=O)Cn2nc(C)c3ccccc3c2=O)c(C)o1 (stereo not drawn) | Wolbachia pipientis | -1.65% |
| CCS(=O)(=O)CC(=O)NC(c1ccccc1)C1CCCC1 (stereo not drawn) | Wolbachia pipientis | 90.5% |
| CNC(=O)c1cccc(CN2CCC(N(C)Cc3nnc(C)o3)C2)c1 (stereo not drawn) | Wolbachia pipientis | 0.9226% |

So what's the measured Percent Effect for this one? CCn1nc(C)c2ccn(CC(=O)NC(C)C)c(=O)c21
83.24%

Likewise for CNC(=O)c1ccc(Cn2ccnc2S(C)(=O)=O)cc1 ?
-4.025%

###

- System: Wolbachia pipientis
- experiment notes: Anti-Wolbachia Cell-Based Screen
- Format: functional
- Set-up: scale not given: in the data most compounds retested in dose-response had high values
- conditions: 5 µM
Screen size: about 48,000 compounds; about 13,000 (27%) showed an effect of 50% or more. Some of the results follow.
reported metric: Percent Effect
Don't forget the unit after the number, please.

A selection of reference data follows.
| molecule | measurement target | Percent Effect |
| --- | --- | --- |
| CN(Cc1nc(-c2ccccc2)no1)C(=O)CNS(C)(=O)=O | Wolbachia pipientis | -1.951% |
| Cc1ccc(OC2(C(=O)O)CCN(C(=O)c3nc(C)oc3C)CC2)cn1 | Wolbachia pipientis | -0.6346% |
| Cc1cc(CN(C)CCC(O)c2ccccc2)nn1C (stereo not given) | Wolbachia pipientis | -3.114% |
| Cc1nc(-c2cc(C(=O)NCC(C)(C)CO)c3ccccn23)cs1 | Wolbachia pipientis | -18.5% |

Consider the additional molecule presented here.
Look at this molecule and give its reported Percent Effect. CC(C)C(=O)N1CCOC[C@H](Oc2ccc(C(F)(F)F)cc2)C1
-12.72%

###

- Test system: Wolbachia pipientis
- experiment notes: Anti-Wolbachia Cell-Based Screen
- Type: functional
- Parameters: scale not given: in the data most compounds retested in dose-response had high values
- conditions: 5 µM
Screen size: about 48,000 compounds; about 13,000 (27%) showed an effect of 50% or more. This is one part of the list.
Percent Effect for assorted compounds
Supply the numeric figure in %, leaving out any unit text.

Field: example entries. Status: answers known.
| compound | recorded result |
| --- | --- |
| O=C1CCC(c2nc(C3CCN(C(=O)Cc4cccs4)CC3)no2)N1 (stereo not drawn) | 131.4 |
| CN(C)CCO[C@@H]1CC[C@H]2[C@H]1OCCN2C(=O)CCc1ccccc1.O=C(O)C(F)(F)F | -7.187 |

Turning now to a further compound:
I have this compound here, COc1ccc(C(=O)N2CCO[C@H]3[C@@H](OCC4CC4)CC[C@@H]32)cc1F , and I need its recorded Percent Effect.
-14.51

###

- System: Wolbachia pipientis
- experiment notes: Anti-Wolbachia Cell-Based Screen
- Type: functional
- Set-up: scale not given: in the data most compounds retested in dose-response had high values
- conditions: 5 µM
In all, about 48,000 compounds went through this assay and about 13,000 (27%) showed an effect of 50% or more. This is one part of the list.
Below, each of the compounds is paired with its reported Percent Effect value.

Find the recorded Percent Effect belonging to COc1ccc(CCN2CCCC(Cn3nc(C)nc3C)C2)cc1 (stereo not drawn) and report it.
9.645%

Now the compound CC(C)OCCOCc1cccc(NC(=O)N2CCCC(O)C2)c1 (stereo not drawn)
-8.695%

Next compound: Cc1nc(C)n(CC2CCCN(CCc3ccccc3)C2)n1 (stereo not drawn)
91.53%

Lookup Cc1ccc(-c2nc(CN3CCOC(Cn4cccn4)C3)co2)cc1 (stereo not drawn)
108.6%

Try COc1ccc(CN2CCn3cc(CNC(=O)C4CCC4)nc3C2)cc1.O=C(O)C(F)(F)F next.
-6.087%

Again, but for Cc1cc(C(=O)NC2CCN(CC(N)=O)CC2)nn1C(C)(C)C
133.1%

Further, for c1csc(-c2nc(CN3CCOC(Cn4cccn4)C3)co2)c1 (stereo not drawn) ?
6.391%

Next compound: Fc1cccc(-c2nc(CN3CCOC(Cn4cncn4)C3)co2)c1 (stereo not drawn)
-2.254%

Okay, and NC(=O)CN1CCC(NC(=O)c2ccn(-c3cccc(F)c3)n2)CC1 ?
-0.7272%

Subsequent entry: Cc1cc(C)nc(N2Cc3cnn(Cc4ccc(F)cc4)c3C2)n1
10.67%
